This collection of values is drawn from patent US8455475B2.

- ASSAY_SYSTEM: rat B1R (bradykinin receptor 1) (Rattus norvegicus)
- Construct: expressed in transfected cells; host or cells: CHO K1 cells
- Sequence (P97583 whole entry): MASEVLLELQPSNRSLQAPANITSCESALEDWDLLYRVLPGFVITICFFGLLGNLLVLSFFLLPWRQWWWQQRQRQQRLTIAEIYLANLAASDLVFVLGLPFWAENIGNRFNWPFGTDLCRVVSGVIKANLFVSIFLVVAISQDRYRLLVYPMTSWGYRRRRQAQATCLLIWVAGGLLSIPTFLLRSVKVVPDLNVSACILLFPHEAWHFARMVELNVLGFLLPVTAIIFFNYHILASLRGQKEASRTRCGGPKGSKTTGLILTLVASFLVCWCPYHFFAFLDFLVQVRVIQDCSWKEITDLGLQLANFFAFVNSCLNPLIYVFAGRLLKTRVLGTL
- PROTOCOL_SUMMARY: FLIPR Ca2+ assay (Fluo-4) on CHO K1 cells stably transfected with the B1R gene of the rat (rB1R cells): % inhibition at 10 μM / IC50, agonist Des-Arg9-bradykinin
- Assay type: cell-based
- ASSAY_SETUP: CHO-K1, rat B1R
Overview of reported inhibition at 10 µM across a group of compounds:
Give just the number in %; leave the unit off.

get_value(item= Cc1cccc(Cl)c1C(=O)NC1CCc2ccc(C(=O)N3CCC4(CCN(Cc5ccc6nccnc6c5)CC4)C3)cc21 (centres unmarked) [IND_CC-765] , readout=inhibition at 10 µM) returns 105

get_value(item= O=C(NC1CCc2ccc(C(=O)N3CCC4(CCN(Cc5ccccn5)CC4)CC3)cc21)c1ccccc1Cl (centres unmarked) [IND_CC-509] , readout=inhibition at 10 µM) returns 101

get_value(item= O=C(NC1CCc2ccc(C(=O)N3CCC4(CC3)CCN(c3ccncc3)C4)cc21)c1ccc(Cl)cc1Cl (centres unmarked) [Ind_CC-044] , readout=inhibition at 10 µM) returns 100

Further cases:
get_value(item= O=C(NC1CCc2ccc(C(=O)N3CCC4(CCN(Cc5ccc(F)cc5F)CC4)C3)cc21)c1cc(C(F)(F)F)ccc1Cl (centres unmarked) [IND_CC-635] , readout=inhibition at 10 µM) returns 72

get_value(item= O=C(NC1CCc2ccc(C(=O)N3CCC4(CC3)CCN(c3ccncc3)CC4)cc21)c1ccc(Cl)cc1Cl (centres unmarked) [Ind_CC-006] , readout=inhibition at 10 µM) returns 98

get_value(item= O=C(N[C@@H]1CCc2ccc(C(=O)N3CC4(CCN(c5ccncc5)CC4)C3)cc21)c1ccccc1Cl [Example H-27] , readout=inhibition at 10 µM) returns 102

get_value(item= Cc1cccc(C)c1C(=O)NC1CCc2ccc(C(=O)N3CCC4(CCN(c5ccncc5)CC4)C3)cc21 (centres unmarked) [IND_CC-310] , readout=inhibition at 10 µM) returns 104

get_value(item= O=C(NC1CCc2ccc(C(=O)N3CCC4(CCN(CC5CCCCC5)CC4)C3)cc21)c1c(F)cccc1Cl (centres unmarked) [IND_CC-779] , readout=inhibition at 10 µM) returns 69

get_value(item= O=C(NC1CCc2ccc(C(=O)N3CCC4(CCN(c5ccncc5)CC4)C3)cc21)c1ccc(F)cc1Cl (centres unmarked) [IND_CC-277] , readout=inhibition at 10 µM) returns 105

get_value(item= O=C(N[C@@H]1CCOc2ccc(C(=O)N3CCC4(CCN(c5ccncc5)CC4)C3)cc21)c1ccccc1Cl [Example H-67] , readout=inhibition at 10 µM) returns 102

get_value(item= O=C(NC1CCc2ccc(C(=O)N3CCC4(CC3)CCN(c3ccncc3)CC4)cc21)c1ccccc1C(F)(F)F (centres unmarked) [Ind_CC-003] , readout=inhibition at 10 µM) returns 101

get_value(item= O=C(c1ccc2c(c1)C(N(C(=O)c1ccccc1Cl)C1CC1)CC2)N1CCC2(CC1)CCN(c1ccncc1)C2 (centres unmarked) [Ind_CC-119] , readout=inhibition at 10 µM) returns 104

get_value(item= N#Cc1ccc(CN2CCC3(CC2)CCN(C(=O)c2ccc4c(c2)C(N(C(=O)c2ccccc2Cl)C2CC2)CC4)C3)cc1 (centres unmarked) [IND_CC-539] , readout=inhibition at 10 µM) returns 75

get_value(item= COc1ccc(C(=O)N[C@@H]2CCc3ccc(C(=O)N4CCC5(CCN(c6ccncc6)CC5)C4)cc32)c(Cl)c1 [Example H-63] , readout=inhibition at 10 µM) returns 104

get_value(item= CN(C(=O)c1cccc(C(F)(F)F)c1Cl)C1CCc2ccc(C(=O)N3CCC4(CC3)CCN(c3ccncc3)CC4)cc21 (centres unmarked) [IND_CC-225] , readout=inhibition at 10 µM) returns 103
